These entries and their values trace back to ChEMBL document CHEMBL4257553.

# Tested on: Staphylococcus aureus
# Assay Remarks: Antibacterial activity against methicillin resistant Staphylococcus aureus after 24 hrs by microbroth dilution method
# Format: functional
Observable: MIC (µg/mL)
Numbers only, in µg/mL.

Example molecules with recorded MIC:
CCOP(=O)(OCC)C(Nc1ncccn1)c1ccc(F)cc1 (stereo not drawn) :: 256
CCOP(=O)(OCC)C(Nc1ncccn1)c1cn(CC)c2ccccc12 (stereo not drawn) :: 4
CCCCc1nc(Cl)c(C(Nc2ncccn2)P(=O)(OCC)OCC)n1CC (stereo not drawn) :: 256
O=P(O)(O)C(Nc1ncccn1)c1ccc(F)cc1 (stereo not drawn) :: 128
CCn1cc(C(=O)O)c(=O)c2cc(F)c(N3CCNCC3)cc21 :: 8

Give MIC for each listed item.
1. CCCCc1nc(Cl)c(C(Nc2ncccn2)P(=O)(OCC)OCC)n1CCC (stereo not drawn)
2. CCOP(=O)(OCC)C(Nc1ncccn1)c1ccccc1Cl (stereo not drawn)

Reply |
[8, 8]
